Assay: soluble on expression in E. coli; label from the status in PepcDB or PDB records
measurementName: soluble on expression in E. coli

Use the examples below as a reference point.
NGQSDVKHIGILQYVEHPSLTATRKGFIKELAKEGYKDGKNIKIEYKNAQGDQSNIQSISEKLIKDNKLVLGIATPAAQSLTTVSTETPILFTAVTDPVSAELVKSMKKPEGLATGTSDMSPIKKQVSLLRKVMPKVKRVGIMYTTSERNSEVQVKQAKKIFQEAGIKTSVKGISSTNDVQDTAKSLMSKTEVIFVPTDNIIASSVTLLGNLSKELKVPVVGGSADMVPSGLLFSYGADYEALGRQTARQAVKILKGKDVAKVPSEYPQNLKVVVNEDMAKELGIDVSSIK    not soluble
GHHHHHHAIAENLYFQSKFLDVECLSELQRKLNDLELTDYRVRCQLEAYSCKPAGFDKKLSKSLEQKLVEQLEASPRVLEGSPVGSLEDQSARKTLINLICTLNAAHQDYDFSSLQLSRLKRVQDVRSLQQHVDSLFELFYRQLGLEFRQFLWENIGQIIRPEECEVYSYLPDYESDPYSASGALWSFCYFFYHKNMKKILFFSCTLSTRLAEDSESTESVDEEDFGKESSGLETPFAMFETVI    not soluble
MAHHHHHHMPAKSAKSKTQTLRDERKLGVEKLVELVFIGRPRTLSFSHRSLGSLRHPYSSLICETSAACASTQDKIMYLLEVFLEAKAEKKAWMRVERIFDSMLGDALMEKMKLGLLLSSELLQRFEVLWIRLGGVNGGFIFEDAYKQFHQHLYFTLFGIEQMTLLPATMQFILEDYQYDSHDKSGIDFGSFAHSMLELADNWAGSREVTDYVAFMDKIIECYPASAVKPCKTHAPDELTLSKDAFFRGGVVVPRVEGEQIVYHRITL    not soluble
MASKLRRYIMNTTSLSLTPLLRHSVGFERFNDLFESMRNADDSTYAYPAYDIEKHGEDSYTITMAVPGFQESDLNIMVQNDQLTVSGRIQEKETKESEYLHRSIVTRAFEQTFRLADHMQVTGAEIKNGLLSIGLIREIPEEAKPRIIPIKSISDQESNKKGKTLEPESKKKISN    not soluble

soluble on expression in E. coli reading for MGSDKIHHHHHHMTEKKTMLEKLKKLMHHFTLSLDDISVETSRARQLSIRTEIDRLRSNERYKEPKSLIPFGGKIYSQNDEDGIIREIFNRIGTTNKVFVEFGIGNGLENNTLALLFEDWQGLWIDASSDSITSIRNHFSEIIGSGKLAVVESFITKANIDNLIATNVKHREIDLLSVDIDGNDYHVLQAISCITPRVIVIEYNAKFAPPVLFCMDYTETHMWTGDDCFGASLKFLETNLNKMGYCLVGCNLTGANAFFIRRELVTNKFLEPFTAENHFEPARYYLSGYASGHTPTYETLARSLTMRVS : not soluble

Reported soluble on expression in E. coli ( MTNLNYQQTHFVMSAPDIRHLPSDCGIEVAFAGRSNAGKSSALNTLTNQKSLARTSKTPGRTQLINLFEVVDGKRLVDLPGYGYAEVPEEMKRKWQRALGEYLEKRQSLQGLVVLMDIRHPLKDLDQQMIQWAVESNIQVLVLLTKADKLASGARKAQLNMVREAVLAFNGDVQVEAFSSLKKQGVDKLRQKLDSWFSELAPVEEIQDGE ) = not soluble

* * *

Experiment: soluble on expression in E. coli; label from the status in PepcDB or PDB records
measurementName: soluble on expression in E. coli

MGSDKIHHHHHHMNTTASPSRLLGVGLYTASQASSYTGIPAKDIRRWMFGYSASGVEHPGLWAPEIAFLDDKLLGFHDLLEIRFVHAFRQHGVSLQAIRSASLQAREMFGQRYPFTCRRFQTDGRDIFATVLDETGDEALLDLVKRQYAFKQVITPSLYEGIDYAGEESAKRWYPVKRSKAVVLDPARNFGKPVLTITGIDTAAIYHSYLAEGQSAKRVALLYEIPPAAVEAAVNFEHRIAA    not soluble
MSSGVMVDPDVQTSFQKLSEGRKEYRYIIFKIDENKVIVEAAVTQDQLGITGDDYDDSSKAAFDKFVEDVKSRTDNLTDCRYAVFDFKFTCSRVGAGTSKMDKIIFLQICPDGASIKKKMVYASSAAAIKTSLGTGKILQFQVSDESEMSHKELLNKLGEKYGDH    not soluble

* * *

Test: soluble on expression in E. coli; label from the status in PepcDB or PDB records
measurementName: soluble on expression in E. coli

Below: 6 sequences and their reported soluble on expression in E. coli.
MAEPLQPDPGAAEDAAAQAVETPGWKAPEDAGPQPGSYEIRHYGPAKWVSTSVESMDWDSAIQTGFTKLNSYIQGKNEKEMKIKMTAPVTSYVEPGSGPFSESTITISLYIPSEQQFDPPRPLESDVFIEDRAEMTVFVRSFDGFSSAQKNQEQLLTLASILREDGKVFDEKVYYTAGYNSPVKLLNRNNEVWLIQKNEPTKENE    soluble
MGSDKIHHHHHHMLESYITVKQDGFSEIEIKKSRFICSVKRVTSEEEAKAFIAAIKKEHWKANHNCSAFVIGEKNDIQRSSDDGEPSGTAGVPMLEVLKKKELINVVAVVTRYFGGIKLGTGGLIRAYSHALSHTLDEIGLVIGKLQQELLITIAYPLLGKAQAFLEHSPYTLKETIYTESIQLICLVDEQATETFIAEMTDLLNGQLTIEKGATSYHELPFNEKGAQANDI    not soluble
MPLAKDLLHPLPAEEKRKHKLKRLVQHPNSYFMDVKCPGCYRITTVFSHAQGVVVCAGCATILCQPTGGRAKLTEGCSFRRKPQLEHHHHHH    not soluble
MEWKDIKGYEGHYQVSNTGEVYSIKSGKTLKHQIPKDGYHRIGLFKGGKGKTFQVHRLVAIHFCEGYEEGLVVDHKDGNKDNNLSTNLRWVTQKINVENQMSRGTLNVSKAQQIAKIKNQKPIIVISPDGIEKEYPSTKCACEELGLTRGKVTDVLKGHRIHHKGYTFRYKLNG    soluble
MGSDKIHHHHHHVQQSQIMEDKIISAVRTFASSINSGGKVVADMSELIEVTSQLPLSSFDYWERFIRSEFSTALRESNSPKWKVWSKPKELVTWLDLISWDGYKREKALRALSGAAPNTFFFSLAVRRLNDWVPQVRKAAREKLPEIAKSTVPECVVDALCVALSNWNSWGRIEDADKEVLLKILCEKEIAKSLRSKLIFSASGPMPSLFSQLGRTPILDGQIEEIAKSAIQPSVRAKAYRSLFEGRVIWIEGRKWVWTDIRYCEGRLKPIVGERKLEIETPLIDLLKRSSEDRSSIVRRVSAEILIRELGNLGVKAKEFAERFALDSSQAVSERGDFALKKLDEAERANAS    not soluble
NKDWSYRIGFNLYDSQSEITKYNNETNLLGDKIYRKGMKMGEIWGYVTDRFYTEDDFNADGTLKPGIPIPKGAGKVFPGDVLYKNFDDDTETIWSGEGTADNPGDQRIIGNSTPRFHYGITAGISWKGLDLSIFLRGVGKRDYWRTDQIAWPTGGWGSLFKETLNFWTPTNTNAYYPRVYSNDGVNTSYNHWKQSKYLANASYLKLQNITLSYTLPKVWSQRLYFDDVKVFFSGENLYTWDHLPEGLETDMLSKGAWEYPFMRKFSFGINVTF    not soluble

response.value for MVATEKKFTLRHIFKNVSQLEDGKYLYSPDEDHFNVDWNMSISHKKEKLGVYFYCYKSEESASAWSIDTEYDLALKNSSGKRISIDFKYKFSTSTGFGTAELVSWDAMIKDYLIDDVIIMEATVKIINLMGIPKKTLRTFDESNEEFSDVILTVEDEKFYVLKQFLASHSSHFKTLFLRKCEEEAEKSEYTLQDINSIDFQNLLEVLHGEPAIDEETVQGIRDLADKYDMPFPTRKCEEFLIDLSEKSIKEKLKIAKQFQLEKLKMHCLSKIETVDHIKAAMTGDPIEMDLSVLAALLGKSLALH (field: soluble on expression in E. coli) = not soluble

# soluble on expression in E. coli (sequence: DIVMTQSHKFMSTSVGDRVSITCKASQDVSTAVAWYQQKPGQSPKLLISWASTRHTGVPDRFTGSGSGTDYTLTISSVQAEDLALYYCQQHYTTPLTFGAGTKLELKRADAAPTVSIFPPSSEQLTSGGASVVCFLNNFYPKDINVKWKIDGSERQNGVLNSWTDQDSKDSTYSMSSTLTLTKDEYERHNSYTCEATHKTSTSPIVKSFNRN ) is soluble

soluble on expression in E. coli for GPGSMSSGSHRSPSAMRPSTRISSIGATSNRSSTHNTETELDPFVASLSRVTVYTDIPDKTLQRIMSITVDAYNRFVLVPTRNTWRKEEGSRKELEREVERTALRDIAQAVKVNVEAALGGTWHVIYGRSFATYVTHQQRCFCHFQLDGANVVVWRHGG is soluble

Lab note: measured soluble on expression in E. coli of MSSQPKLRILCLHGYRQCDQSFRQKTGSTRKLVKSLAEFEFVNGVHSVAVDEHVDSSRAWWFSNNEAMSFSSRESTEVAVGFEESVAAVVKFIEENGPFDGLLGFSQGASMVHLLIAKAQLGEIKLPGIRFAIFFSGFLSLSSKHDSLTLLRIKEFPSMHVFGDADEIVARPKSEKMADMFDVEPLRIAHDGGHVVPSMSKHKEKIAGFMREQLDRKIENN was not soluble

The measured soluble on expression in E. coli associated with MLTSEQVKAMIEGVAKCEHIEVEGDGHHFFAVIVSSEFEGKARLARHRLIKDGLKAQLESNELHALSISVAATPAEWAAKAQ reads not soluble

MKLSATIAIILLNWNGWRDTVDCVESCRKLDYPNFRIVIVDNGSTDGSEAILRERFPDVELIQTGANLGFAGGNNAGIRHALVRGADYVWLLNNDTVVEPGALGALVRVAESDPRVGMVGSKIVYFDDPWLLWFAGAVIDPERPHRPFHRGLHERDTGQYDRVAETGYVTGCSLLARREMMAEVGMLDDDLFLYFEDADWSARAARAGWKLLYVPDSVVRHKESVSSGGAASPRLVYYTARNRLYFVRRNFPAKLAAALCYDLFEHVLVNVKKGRFPLAVAGCRGIRDFLAGKIGPMPLEHHHHHH has a reported soluble on expression in E. coli of soluble

Consider HMFPARWHNYLQCGQVIKDSNLICFKTPLRPELFAYVTSEEDVWTAEQIVKQNPSIGAIIDLTNTSKYYDGVHFLRAGLLYKKIQVPGQTLPPESIVQEFIDTVKEFTEKCPGMLVGVHCTHGINRTGYMVCRYLMHTLGIAPQEAIDRFEKARGHKIERQNYVQDLLI . Its measured soluble on expression in E. coli is soluble
